Counter-ions that a name gives are not always drawn.
Please provide measured melting point for the entries that follow.

Q: Which melting point value is on record for C[C@@]12OC(=O)O[C@@H]1[C@@H](COP1(=O)OCC[C@H](c3cccc(Cl)c3)O1)O[C@H]2n1ccc2c(N)ncnc21 (some centres unmarked) ?
Ans: 127 to 130 °C

Q: Which melting point value is on record for `C[C@@]1(O)[C@H](O)[C@@H](CO[P@@]2(=O)OCC[C@@H](c3cccc(Cl)c3)O2)O[C@H]1n1ccc2c(N)ncnc21` ?
Ans: 135 to 138 °C

Q: Which melting point value is on record for C[C@@]1(O)[C@H](O)[C@@H](COP2(=O)OCC[C@@H](c3cccc(Cl)c3)O2)O[C@H]1n1cnc2c(N)ncnc21 (some centres unmarked) (as salt: trifluoroacetic acid salt) ?
Ans: 125 to 128 °C

Q: Which melting point value is on record for C[C@@]1(O)[C@H](O)[C@@H](CO[P@@]2(=O)O[C@H](c3ccccc3)C[C@H](c3ccccc3)O2)O[C@H]1n1ccc2c(N)ncnc21 (as salt: trifluoroacetic acid salt) ?
Ans: > 220 °C

Q: Which melting point value is on record for C[C@@]1(O)[C@H](O)[C@@H](COP2(=O)OCC[C@@H](c3cc(Cl)ccc3Br)O2)O[C@H]1n1ccc2c(N)ncnc21 (some centres unmarked) ?
Ans: 193 to 196 °C

---

Structures can show the parent of a compound that is named as a salt.
QUANTITY: melting point

Q: Which melting point value is on record for C[C@@]1(O)[C@H](O)[C@@H](COP2(=O)OC[C@@H](c3ccccc3)[C@@H](c3ccccc3)O2)O[C@H]1n1ccc2c(N)ncnc21 (stereo partly shown) (as salt: trifluoroacetic acid salt) [Compound 16.13] ?
Ans: 174 to 177 °C

Q: Which melting point value is on record for `C[C@@]1(O)[C@H](O)[C@@H](CO[P@]2(=O)OCC[C@H](c3ccncc3)O2)O[C@H]1n1ccc2c(N)ncnc21` ?
Ans: 132 to 136 °C

Q: Which melting point value is on record for C[C@@]1(O)[C@H](O)[C@@H](COP2(=O)OCC[C@H](c3cccc(F)c3F)O2)O[C@H]1n1ccc2c(N)ncnc21 (stereo partly shown) (as salt: trifluoroacetic acid salt) ?
Ans: 177 to 180 °C

Q: Which melting point value is on record for `C[C@@]1(O)[C@H](O)[C@@H](CO[P@]2(=O)OCC[C@H](c3cccc(Cl)c3)O2)O[C@H]1n1ccc2c(N)ncnc21` ?
Ans: 126 to 128 °C

Q: Which melting point value is on record for C[C@@]1(O)[C@H](O)[C@@H](COP2(=O)OCC[C@@H](c3ccccc3Cl)O2)O[C@H]1n1ccc2c(N)ncnc21 (stereo partly shown) ?
Ans: 187 to 190 °C

Q: Which melting point value is on record for C[C@@]1(O)[C@H](O)[C@@H](COP2(=O)OCC[C@@H](c3ccccc3C(F)(F)F)O2)O[C@H]1n1ccc2c(=O)[nH]c(N)nc21 (stereo partly shown) (as salt: trifluoroacetic acid salt) ?
Ans: 185 to 188 °C

Q: Which melting point value is on record for C[C@@]1(O)[C@H](O)[C@@H](COP2(=O)OCC[C@@H](c3ccc(S(C)(=O)=O)cc3)O2)O[C@H]1n1cnc2c(N)ncnc21 (stereo partly shown) (as salt: trifluoroacetic acid salt) ?
Ans: 185 to 187 °C

Q: Which melting point value is on record for C[C@@]1(O)[C@H](O)[C@@H](COP2(=O)OCC[C@H](c3ccc(Cl)cc3)O2)O[C@H]1n1ccc2c(N)ncnc21 (stereo partly shown) (as salt: trifluoroacetic acid salt) ?
Ans: 182 to 184 °C

Q: Which melting point value is on record for C[C@@]1(O)[C@H](O)[C@@H](COP2(=O)OCC[C@H](c3ccccc3C(F)(F)F)O2)O[C@H]1n1ccc2c(N)ncnc21 (stereo partly shown) ?
Ans: 115 to 120 °C

Q: Which melting point value is on record for C[C@@]1(O)[C@H](O)[C@@H](COP2(=O)OCC[C@H](c3cccc(C#N)c3)O2)O[C@H]1n1ccc2c(N)ncnc21 (stereo partly shown) ?
Ans: 157 to 160 °C

Q: Which melting point value is on record for CC(=O)O[C@@H]1[C@@H](COP2(=O)OCC[C@H](c3ccncc3)O2)O[C@@H](n2ccc3c(N)ncnc32)[C@]1(C)O (stereo partly shown) ?
Ans: 182 to 185 °C

Q: Which melting point value is on record for C[C@@]1(O)[C@H](O)[C@@H](COP2(=O)OCC[C@H](c3ccc(Cl)cc3Cl)O2)O[C@H]1n1ccc2c(=O)[nH]c(N)nc21 (stereo partly shown) ?
Ans: 175 °C

Q: Which melting point value is on record for `C[C@@]1(O)[C@H](O)[C@@H](CO[P@]2(=O)OCC[C@H](c3ccccc3)O2)O[C@H]1n1ccc2c(=O)[nH]c(N)nc21` ?
Ans: 128 to 133 °C

Q: Which melting point value is on record for C[C@@]12OC(=O)O[C@@H]1[C@@H](COP1(=O)OCC[C@H](c3ccncc3)O1)O[C@H]2n1ccc2c(N)ncnc21 (stereo partly shown) ?
Ans: 192 to 195 °C

Q: Which melting point value is on record for CC1(C)C[C@H](c2ccccc2)OP(=O)(OC[C@H]2O[C@@H](n3ccc4c(=O)[nH]c(N)nc43)[C@](C)(O)[C@@H]2O)O1 (stereo partly shown) (as salt: trifluoroacetic acid salt) ?
Ans: 192 to 194 °C

Q: Which melting point value is on record for C[C@@]1(O)[C@H](O)[C@@H](COP2(=O)OCC[C@H](c3ccccc3Br)O2)O[C@H]1n1ccc2c(=O)[nH]c(N)nc21 (stereo partly shown) ?
Ans: 180 °C

Q: Which melting point value is on record for C[C@@]1(O)[C@H](O)[C@@H](COP2(=O)OCC[C@@H](c3ccccn3)O2)O[C@H]1n1cnc2c(N)ncnc21 (stereo partly shown) (as salt: trifluoroacetic acid salt) ?
Ans: 118 to 120 °C

Q: Which melting point value is on record for C[C@@]1(O)[C@H](O)[C@@H](COP2(=O)OCC[C@@H](c3cccnc3)O2)O[C@H]1n1cnc2c(N)ncnc21 (stereo partly shown) ?
Ans: 137 to 140 °C

Q: Which melting point value is on record for C[C@@]1(O)[C@H](O)[C@@H](COP2(=O)OCC[C@@H](c3ccc(F)c(Br)c3)O2)O[C@H]1n1ccc2c(=O)[nH]c(N)nc21 (stereo partly shown) ?
Ans: 175 to 179 °C

Q: Which melting point value is on record for C[C@@]1(O)[C@H](O)[C@@H](COP2(=O)OCC[C@H](c3ccccn3)O2)O[C@H]1n1ccc2c(N)ncnc21 (stereo partly shown) (as salt: trifluoroacetic acid salt) ?
Ans: 88 to 90 °C

Q: Which melting point value is on record for C[C@@]1(O)[C@H](O)[C@@H](COP2(=O)OCC[C@H](c3ccc(F)cc3Cl)O2)O[C@H]1n1ccc2c(N)ncnc21 (stereo partly shown) (as salt: trifluoroacetic acid salt) ?
Ans: 138 to 141 °C

Q: Which melting point value is on record for C[C@@]1(O)[C@H](O)[C@@H](COP2(=O)OCC[C@H](c3cccnc3)O2)O[C@H]1n1ccc2c(N)ncnc21 (stereo partly shown) ?
Ans: 134 to 138 °C

---

Where a name gives a salt, the structure may show the parent alone.
QUANTITY: melting point

Q: Which melting point value is on record for C[C@@]1(O)[C@H](O)[C@@H](COP2(=O)OC3CCCCC3[C@@H](c3ccccc3)O2)O[C@H]1n1ccc2c(N)ncnc21 (stereo partly drawn) [Compound 16.42] ?
Ans: 110 to 113 °C

Q: Which melting point value is on record for C[C@@]1(O)[C@H](O)[C@@H](COP2(=O)OCC[C@H](c3ccccc3F)O2)O[C@H]1n1ccc2c(N)ncnc21 (stereo partly drawn) [Compound 16.39] ?
Ans: 101 to 103 °C

Q: Which melting point value is on record for C[C@@]1(O)[C@H](O)[C@@H](COP2(=O)OCC[C@@H](c3ccccn3)O2)O[C@H]1n1ccc2c(=O)[nH]c(N)nc21 (stereo partly drawn) (as salt: trifluoroacetic acid salt) [Compound 17.8] ?
Ans: 180 to 190 °C

---

Where a name gives a salt, the structure may show the parent alone.
Please provide measured melting point for the entries that follow.

Q: Which melting point value is on record for C[C@@]1(O)[C@H](O)[C@@H](COP2(=O)OCC[C@H](c3cncc(Br)c3)O2)O[C@H]1n1ccc2c(=O)[nH]c(N)nc21 (stereo partly shown) (as salt: salt) ?
Ans: 185 to 189 °C

Q: Which melting point value is on record for C[C@@]1(O)[C@H](O)[C@@H](COP2(=O)OCCC(c3cccc(Cl)c3)O2)O[C@H]1n1cnc2c(N)ncnc21 (stereo partly shown) ?
Ans: 153 °C

Q: Which melting point value is on record for C[C@@]1(O)[C@H](O)[C@@H](COP2(=O)OCC[C@H](c3cc(C(F)(F)F)cc(C(F)(F)F)c3)O2)O[C@H]1n1ccc2c(=O)[nH]c(N)nc21 (stereo partly shown) ?
Ans: 155 to 175 °C

Q: Which melting point value is on record for CO[C@@H]1COP(=O)(OC[C@H]2O[C@@H](n3ccc4c(=O)[nH]c(N)nc43)[C@](C)(O)[C@@H]2O)O[C@@H]1c1cccc(Cl)c1 (stereo partly shown) ?
Ans: 148 to 151 °C

Q: Which melting point value is on record for C[C@@]1(O)[C@H](O)[C@@H](COP2(=O)OCC[C@H](c3ccc(F)c(Cl)c3)O2)O[C@H]1n1ccc2c(N)ncnc21 (stereo partly shown) ?
Ans: 128 to 130 °C

Q: Which melting point value is on record for C[C@@]1(O)[C@H](O)[C@@H](COP2(=O)OCC[C@@H](c3cccc(F)c3)O2)O[C@H]1n1ccc2c(=O)[nH]c(N)nc21 (stereo partly shown) ?
Ans: 170 °C

Q: Which melting point value is on record for C[C@@]1(O)[C@H](O)[C@@H](COP2(=O)O[C@H](c3ccccc3)C[C@H](c3ccccc3)O2)O[C@H]1n1ccc2c(N)ncnc21 (stereo partly shown) (as salt: trifluoroacetic acid salt) ?
Ans: 140 to 143 °C

Q: Which melting point value is on record for `C[C@@]1(O)[C@H](O)[C@@H](CO[P@@]2(=O)OCC[C@@H](c3ccncc3)O2)O[C@H]1n1ccc2c(N)ncnc21` ?
Ans: 183 to 185 °C

Q: Which melting point value is on record for `C[C@@]1(O)[C@H](O)[C@@H](CO[P@@]2(=O)OCC[C@@H](c3ccccc3)O2)O[C@H]1n1ccc2c(N)ncnc21` ?
Ans: 115 to 118 °C

Q: Which melting point value is on record for `C[C@@]1(O)[C@H](O)[C@@H](CO[P@]2(=O)OCC[C@H](c3ccccc3)O2)O[C@H]1n1ccc2c(N)ncnc21` ?
Ans: 177 to 180 °C

Q: Which melting point value is on record for C[C@@]1(O)[C@H](O)[C@@H](COP2(=O)OCC[C@H](c3cccc(F)c3F)O2)O[C@H]1n1ccc2c(=O)[nH]c(N)nc21 (stereo partly shown) (as salt: trifluoroacetic acid salt) ?
Ans: 215 to 220 °C

Q: Which melting point value is on record for C[C@@]1(O)[C@H](O)[C@@H](COP2(=O)OCC[C@@H](c3cncc(Br)c3)O2)O[C@H]1n1ccc2c(N)ncnc21 (stereo partly shown) ?
Ans: 132 to 135 °C

Q: Which melting point value is on record for C[C@@]1(O)[C@H](O)[C@@H](COP2(=O)OC[C@H](c3ccccc3)[C@H](c3ccccc3)O2)O[C@H]1n1ccc2c(=O)[nH]c(N)nc21 (stereo partly shown) (as salt: trifluoroacetic acid salt) ?
Ans: 187 to 190 °C

Q: Which melting point value is on record for C[C@@]1(O)[C@H](O)[C@@H](COP2(=O)OCC[C@H](c3cc(Cl)cc(Cl)c3)O2)O[C@H]1n1ccc2c(=O)[nH]c(N)nc21 (stereo partly shown) ?
Ans: 177 to 180 °C

Q: Which melting point value is on record for C[C@@]1(O)[C@H](O)[C@@H](COP2(=O)OCC[C@@H](c3cccc(Br)c3)O2)O[C@H]1n1cnc2c(N)ncnc21 (stereo partly shown) ?
Ans: 108 to 110 °C

Q: Which melting point value is on record for C[C@@]1(O)[C@H](O)[C@@H](COP2(=O)OCC[C@H](c3ccc(Cl)c(Cl)c3)O2)O[C@H]1n1ccc2c(=O)[nH]c(N)nc21 (stereo partly shown) (as salt: salt) ?
Ans: 192 to 195 °C

Q: Which melting point value is on record for CO[C@@H]1COP(=O)(OC[C@H]2O[C@@H](n3ccc4c(N)ncnc43)[C@](C)(O)[C@@H]2O)O[C@@H]1c1cccc(Cl)c1 (stereo partly shown) (as salt: trifluoroacetic acid salt) ?
Ans: 116 to 120 °C

Q: Which melting point value is on record for C[C@@]1(O)[C@H](O)[C@@H](COP2(=O)OCC[C@H](c3cc(F)ccc3F)O2)O[C@H]1n1ccc2c(N)ncnc21 (stereo partly shown) ?
Ans: 145 to 148 °C

Q: Which melting point value is on record for C[C@@]1(O)[C@H](O)[C@@H](COP2(=O)OCC[C@H](c3ccc(F)c(Br)c3)O2)O[C@H]1n1ccc2c(N)ncnc21 (stereo partly shown) (as salt: salt) ?
Ans: 122 to 125 °C

Q: Which melting point value is on record for C[C@@]1(O)[C@H](O)[C@@H](COP2(=O)OCC[C@@H](c3ccccc3Br)O2)O[C@H]1n1ccc2c(N)ncnc21 (stereo partly shown) ?
Ans: 132 to 135 °C

Q: Which melting point value is on record for C[C@@]1(O)[C@H](O)[C@@H](COP2(=O)OCC[C@H](c3cc(F)cc(F)c3)O2)O[C@H]1n1ccc2c(N)ncnc21 (stereo partly shown) ?
Ans: 135 to 140 °C

Q: Which melting point value is on record for CC1(C)C[C@H](c2ccccc2)OP(=O)(OC[C@H]2O[C@@H](n3ccc4c(N)ncnc43)[C@](C)(O)[C@@H]2O)O1 (stereo partly shown) ?
Ans: 140 to 142 °C
